assay-system: T1, human IL-23 (form not stated) (human, UniProt P29460 23-328)
T1 sequence 1: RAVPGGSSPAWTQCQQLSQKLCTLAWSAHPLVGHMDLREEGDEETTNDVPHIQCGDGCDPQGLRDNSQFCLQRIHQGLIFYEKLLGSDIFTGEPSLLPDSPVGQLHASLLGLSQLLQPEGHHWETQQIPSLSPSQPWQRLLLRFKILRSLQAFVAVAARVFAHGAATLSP
T1 sequence 2: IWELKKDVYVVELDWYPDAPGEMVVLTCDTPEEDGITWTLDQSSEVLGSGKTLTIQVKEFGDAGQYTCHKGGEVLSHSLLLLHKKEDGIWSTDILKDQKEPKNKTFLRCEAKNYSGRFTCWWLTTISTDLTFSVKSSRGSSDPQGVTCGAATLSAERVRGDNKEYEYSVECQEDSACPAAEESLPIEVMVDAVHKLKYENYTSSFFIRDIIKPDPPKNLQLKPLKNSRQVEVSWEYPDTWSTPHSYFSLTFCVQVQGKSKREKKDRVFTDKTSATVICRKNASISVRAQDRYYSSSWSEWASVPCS
experiment-notes: cell-based or functional assay
property: Splenocyte assay IC50 (IL-17 production by mouse splenocytes) (nM)
Could you give me the number in nM? Just the number is fine.

mouse anti-human IL-23p19 antibody 12C11 (antibody, V domains shown) VH: EVMLVESGGGLVKPGGSLKLSCAASGFTFSNYGMSWVRQSPERGLEWVATISTGGRYTFYSDTVKGRFTISRDNARNTLYLKMSSLISEDTAVHYCARHEGDTYYGWYFDVWGAGTTVTVSS VL: DIVLTQSPASLAVSLGQRATISCKASHSVDYDVDSFMNWYQQKPGQPPKLLIFASSSLESGIPARFSGSGSGTNFILNIHPVEEEDAATYYCQQGNEDLFTFGSGTKLEIKR : 0.079

// switching to the query binder
# query: Splenocyte assay IC50 (IL-17 production by mouse splenocytes) of entry mouse anti-human IL-23p19 antibody 20A4 (antibody, V domains shown) VH: QAQLQQSGGELARPGASVKLSCKASGYTFTSYGIKWVKQGTGQGLEWIGEIFPRSGQTYYNEKFKGKATLTADKSSSTAYMELRSLTSEDSAVYFCASNWDLDYWGQGTILTVSS VL: DIVMTQSPATLSVTPGDRVSLSCRASQSISDFLHWYRQKSHESPRLLIKYVSQSISGIPSRFSGSGSGSDFTLSINSVDPEDVGVYYCQNGHSFPYTFGGGTKLEIKR
0.024
